Assay: in vivo
Conditions: swiss nude, mouse, kidneys, iv
Numbered stars: 1 amine (or outer) side, 2 acyl side, 3 side chain; on linkers, the order of the positions; unused ones are H or OH. Bridge positions count the residues as written; N and C are the ends. Square brackets hold non-standard residues; d marks the D form. Peptide text beside a SMILES is read from it. * marks the point of attachment. ξ: configuration not given here. X1 = NCCNCC(CNCCN)C(=O)N1CCN(CC(=O)NCCCOCCOCCOCCCN*)CC1; Pyridine(3,5-bisCH2) = c1ncc(C[*:2])cc1C[*:1]; mXylylene = c1cc(C[*:1])cc(C[*:2])c1; Suc = O=C(CCC(=O)[*:2])[*:1]; Nle = CCCC[C@H](N)C(=O)O; ξC = NC(CS)C(=O)O
Form field: tissue uptake at 3 h (one value per entry).
Kindly answer with a numeric value in %ID/g, unit omitted.

Solved entries:
Exercise: // tissue uptake at 3 h lookup, key: CCCC[C@H](NC(=O)CCC(=O)NCCCOCCOCCOCCCNC(=O)CN1CCN(C(=O)C(CNCCN)CNCCN)CC1)C(=O)N[C@H]1CSCc2cccc(c2)CSCC(C(=O)O)NC(=O)[C@H](Cc2ccccc2)NC(=O)[C@H](CCC(N)=O)NC(=O)[C@H]([C@@H](C)O)NC(=O)[C@@H]2CCCN2C(=O)[C@@H]2CCCN2C1=O (stereo partly shown) [3BP-4541]
Key: 2.41

Exercise: // tissue uptake at 3 h lookup, key: CCCC[C@H](NC(=O)CCC(=O)NCCCOCCOCCOCCCNC(=O)CN1CCN(C(=O)C(CNCCN)CNCCN)CC1)C(=O)N[C@H]1CSCc2cccc(c2)CSC[C@@H](C(=O)N[C@@H](CC(=O)O)C(=O)O)NC(=O)[C@H](Cc2ccccc2)NC(=O)[C@H](CCC(=O)O)NC(=O)[C@H]([C@@H](C)O)NC(=O)[C@@H]2CCCN2C(=O)[C@@H]2CCCN2C1=O [3BP-4785] ({X1-Suc}-[Nle]CPPTEFCD-OH; linker 2-8 via mXylylene)
Key: 2.14

Exercise: // tissue uptake at 3 h lookup, key: CCCC[C@H](NC(=O)CCC(=O)NCCCOCCOCCOCCCNC(=O)CN1CCN(C(=O)C(CNCCN)CNCCN)CC1)C(=O)N[C@H]1CSCc2cccc(c2)CSC[C@@H](C(=O)NCCC(=O)O)NC(=O)[C@H](Cc2ccccc2)NC(=O)[C@H](CCC(N)=O)NC(=O)[C@H]([C@@H](C)O)NC(=O)[C@@H]2CCCN2C(=O)[C@@H]2CCCN2C1=O [3BP-4960]
Key: 1.21

More entries:
Exercise: // tissue uptake at 3 h lookup, key: CCCC[C@H](NC(=O)CCC(=O)NCCCOCCOCCOCCCNC(=O)CN1CCN(C(=O)C(CNCCN)CNCCN)CC1)C(=O)N[C@H]1CSCc2cncc(c2)CSCC(C(=O)O)NC(=O)[C@H](Cc2ccccc2)NC(=O)[C@H](CCC(=O)O)NC(=O)[C@H]([C@@H](C)O)NC(=O)[C@@H]2CCCN2C(=O)[C@@H]2CCCN2C1=O (stereo partly shown) [3BP-4775] ({X1-Suc}-[Nle]CPPTEF[ξC]-OH; linker 2-8 via Pyridine(3,5-bisCH2))
Key: 6.31

* * *

Target: FAP-expressing human WI-38 fibroblasts (Homo sapiens)
Construct: FAP-expressing human WI-38 fibroblasts (ECACC) were cultured in EMEM; host or cells: WI-38 human fibroblasts
Sequence (Q12884 whole entry): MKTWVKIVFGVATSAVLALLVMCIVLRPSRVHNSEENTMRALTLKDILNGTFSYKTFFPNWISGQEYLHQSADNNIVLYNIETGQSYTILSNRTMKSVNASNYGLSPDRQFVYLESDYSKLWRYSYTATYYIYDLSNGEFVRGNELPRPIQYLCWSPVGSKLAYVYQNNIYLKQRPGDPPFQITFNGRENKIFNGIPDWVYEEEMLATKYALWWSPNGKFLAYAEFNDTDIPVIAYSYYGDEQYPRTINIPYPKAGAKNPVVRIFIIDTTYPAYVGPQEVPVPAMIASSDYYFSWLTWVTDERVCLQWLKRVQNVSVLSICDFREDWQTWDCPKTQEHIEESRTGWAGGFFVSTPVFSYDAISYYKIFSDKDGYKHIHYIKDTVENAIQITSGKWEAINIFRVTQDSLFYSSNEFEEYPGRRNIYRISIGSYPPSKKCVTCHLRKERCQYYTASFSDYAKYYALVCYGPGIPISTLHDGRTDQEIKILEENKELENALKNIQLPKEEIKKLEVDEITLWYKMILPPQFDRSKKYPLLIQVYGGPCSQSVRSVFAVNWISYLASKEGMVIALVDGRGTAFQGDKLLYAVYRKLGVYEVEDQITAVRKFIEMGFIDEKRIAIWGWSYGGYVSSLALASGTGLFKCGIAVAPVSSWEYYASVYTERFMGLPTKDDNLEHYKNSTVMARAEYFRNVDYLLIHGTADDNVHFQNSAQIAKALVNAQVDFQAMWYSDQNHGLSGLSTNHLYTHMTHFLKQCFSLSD
Test: Competitive FACS binding assay
Numbered stars: 1 amine (or outer) side, 2 acyl side, 3 side chain; on linkers, the order of the positions; unused ones are H or OH. Bridge positions count the residues as written; N and C are the ends. Square brackets hold non-standard residues; d marks the D form. Peptide text beside a SMILES is read from it. Oic = O=C(O)[C@@H]1C[C@@H]2CCCC[C@@H]2N1; mXylylene = c1cc(C[*:1])cc(C[*:2])c1
Form field: IC50 (one value per entry).

Solved entries:
Exercise: // IC50 lookup, key: `CCCCCC(=O)N[C@H]1CSCc2cc(CSCCNC(=O)CN3CCN(CC(=O)O)CCN(CC(=O)O)CCN(CC(=O)O)CC3)cc(c2)CSC[C@@H](C(=O)N[C@H](CC(=O)O)C(N)=O)NC(=O)[C@H](Cc2ccccc2)NC(=O)[C@H](CCC(N)=O)NC(=O)[C@H]([C@@H](C)O)NC(=O)[C@@H]2CCCN2C(=O)[C@@H]2CCCN2C1=O`
Key: < 10 nM

Exercise: // IC50 lookup, key: `C[C@@H](O)[C@@H]1NC(=O)[C@@H]2CCCN2C(=O)[C@@H]2CCCN2C(=O)[C@@H](NC(=O)CCCS(N)(=O)=O)CSCc2cccc(c2)CSC[C@@H](C(N)=O)NC(=O)[C@H](Cc2ccccc2)NC(=O)[C@H](CCC(N)=O)NC1=O`
Key: > 1000 nM

More entries:
Exercise: // IC50 lookup, key: `COCCCC(=O)N[C@H]1CSCc2cc(CSCCNC(=O)CN3CCN(CC(=O)O)CCN(CC(=O)O)CCN(CC(=O)O)CC3)cc(c2)CSC[C@@H](C(=O)O)NC(=O)[C@H](Cc2ccccc2)NC(=O)[C@H](CCC(N)=O)NC(=O)[C@H]([C@@H](C)O)NC(=O)[C@@H]2CCCN2C(=O)[C@@H]2CCCN2C1=O`
Key: < 10 nM

Exercise: // IC50 lookup, key: `CCCCCC(=O)N[C@H]1CSCc2cc(CSCCNC(=O)CN3CCN(CC(=O)O)CCN(CC(=O)O)CCN(CC(=O)O)CC3)cc(c2)CSC[C@@H](C(=O)NCCCC(=O)O)NC(=O)[C@H](Cc2ccccc2)NC(=O)[C@H](CCC(N)=O)NC(=O)[C@H]([C@@H](C)O)NC(=O)[C@@H]2CCCN2C(=O)[C@@H]2CCCN2C1=O`
Key: < 10 nM

Exercise: // IC50 lookup, key: CSCC[C@H](NC(C)=O)C(=O)N[C@H]1CSCc2cccc(c2)CSC[C@@H](C(=O)N[C@@H](CC(=O)O)C(=O)N[C@@H](Cc2c[nH]cn2)C(=O)N[C@@H](Cc2ccccc2)C(=O)N[C@@H](CCCNC(=N)N)C(=O)N[C@@H](CC(=O)O)C(N)=O)NC(=O)[C@H](Cc2ccccc2)NC(=O)[C@H](CCC(=O)O)NC(=O)[C@H]([C@@H](C)O)NC(=O)[C@@H]2CCCN2C(=O)[C@@H]2C[C@@H]3CCCC[C@@H]3N2C1=O [3BP-3216] (Ac-MC[Oic]PTEFCDHFRD-NH2; linker 2-8 via mXylylene)
Key: 100 to 794 nM

Exercise: // IC50 lookup, key: `C[C@@H](O)[C@@H]1NC(=O)[C@@H]2CCCN2C(=O)[C@@H]2CCCN2C(=O)[C@@H](NC(=O)CCCC(=O)O)CSCc2cccc(c2)CSC[C@@H](C(N)=O)NC(=O)[C@H](Cc2ccccc2)NC(=O)[C@H](CCC(N)=O)NC1=O`
Key: 100 to 794 nM

* * *

Test: in vivo
Conditions: swiss nude, mouse, kidneys, iv
Numbered stars: 1 amine (or outer) side, 2 acyl side, 3 side chain; on linkers, the order of the positions; unused ones are H or OH. Bridge positions count the residues as written; N and C are the ends. Square brackets hold non-standard residues; d marks the D form. Peptide text beside a SMILES is read from it. * marks the point of attachment. ξ: configuration not given here. X6 = NCCNCC(CNCCN)C(=O)NCCOCCOCCOCCOCCOCCOCCC(=O)NCCCOCCOCCOCCCN*; X1 = NCCNCC(CNCCN)C(=O)N1CCN(CC(=O)NCCCOCCOCCOCCCN*)CC1; Pyridine(3,5-bisCH2) = c1ncc(C[*:2])cc1C[*:1]; mXylylene = c1cc(C[*:1])cc(C[*:2])c1; Suc = O=C(CCC(=O)[*:2])[*:1]; Nle = CCCC[C@H](N)C(=O)O; ξC = NC(CS)C(=O)O
Label rule, in plain words: tissue uptake at 1 h of 2 %ID/g and up is rule met, under 2 %ID/g is rule not met.

Example cases with answers are listed next.
Exercise: Given CCCC[C@H](NC(=O)CCC(=O)NCCCOCCOCCOCCCNC(=O)CN1CCN(C(=O)C(CNCCN)CNCCN)CC1)C(=O)N[C@H]1CSCc2cccc(c2)CSCC(C(=O)O)NC(=O)[C@H](Cc2ccccc2)NC(=O)[C@H](CCC(N)=O)NC(=O)[C@H]([C@@H](C)O)NC(=O)[C@@H]2CCCN2C(=O)[C@@H]2CCCN2C1=O (stereo partly drawn) [3BP-4541] , state whether its tissue uptake at 1 h is at least 2 %ID/g.
Key: rule met

Exercise: Given CCCC[C@H](NC(=O)CCC(=O)NCCCOCCOCCOCCCNC(=O)CN1CCN(C(=O)C(CNCCN)CNCCN)CC1)C(=O)N[C@H]1CSCc2cncc(c2)CSCC(C(=O)O)NC(=O)[C@H](Cc2ccccc2)NC(=O)[C@H](CCC(=O)O)NC(=O)[C@H]([C@@H](C)O)NC(=O)[C@@H]2CCCN2C(=O)[C@@H]2CCCN2C1=O (stereo partly drawn) [3BP-4775] ({X1-Suc}-[Nle]CPPTEF[ξC]-OH; linker 2-8 via Pyridine(3,5-bisCH2)) , state whether its tissue uptake at 1 h is at least 2 %ID/g.
Key: rule met

Exercise: Given CCCC[C@H](NC(=O)CCOCCOCCOCCOCCOCCOCCNC(=O)C(CNCCN)CNCCN)C(=O)N[C@H]1CSCc2cncc(c2)CSCC(C(=O)O)NC(=O)[C@H](Cc2ccccc2)NC(=O)[C@H](CCC(N)=O)NC(=O)[C@H]([C@@H](C)O)NC(=O)[C@@H]2CCCN2C(=O)[C@@H]2CCCN2C1=O (stereo partly drawn) [3BP-4550] , state whether its tissue uptake at 1 h is at least 2 %ID/g.
Key: rule not met

Exercise: Given CCCC[C@H](NC(=O)CCC(=O)NCCCOCCOCCOCCCNC(=O)CN1CCN(C(=O)C(CNCCN)CNCCN)CC1)C(=O)N[C@H]1CSCc2cncc(c2)CSCC(C(=O)O)NC(=O)[C@H](Cc2ccccc2)NC(=O)[C@H](CCC(N)=O)NC(=O)[C@H]([C@@H](C)O)NC(=O)[C@@H]2CCCN2C(=O)[C@@H]2CCCN2C1=O (stereo partly drawn) [3BP-4774] , state whether its tissue uptake at 1 h is at least 2 %ID/g.
Key: rule not met

More entries:
Exercise: Given CCCC[C@H](NC(=O)CCC(=O)NCCCOCCOCCOCCCNC(=O)CCOCCOCCOCCOCCOCCOCCNC(=O)C(CNCCN)CNCCN)C(=O)N[C@H]1CSCc2cccc(c2)CSC[C@@H](C(=O)O)NC(=O)[C@H](Cc2ccccc2)NC(=O)[C@H](CCC(=O)O)NC(=O)[C@H]([C@@H](C)O)NC(=O)[C@@H]2CCCN2C(=O)[C@@H]2CCCN2C1=O [3BP-4780] ({X6-Suc}-[Nle]CPPTEFC-OH; linker 2-8 via mXylylene) , state whether its tissue uptake at 1 h is at least 2 %ID/g.
Key: rule met
